# Measured Target: hQC (Homo sapiens, UniProt Q16769)
# Sequence (Q16769 29-361): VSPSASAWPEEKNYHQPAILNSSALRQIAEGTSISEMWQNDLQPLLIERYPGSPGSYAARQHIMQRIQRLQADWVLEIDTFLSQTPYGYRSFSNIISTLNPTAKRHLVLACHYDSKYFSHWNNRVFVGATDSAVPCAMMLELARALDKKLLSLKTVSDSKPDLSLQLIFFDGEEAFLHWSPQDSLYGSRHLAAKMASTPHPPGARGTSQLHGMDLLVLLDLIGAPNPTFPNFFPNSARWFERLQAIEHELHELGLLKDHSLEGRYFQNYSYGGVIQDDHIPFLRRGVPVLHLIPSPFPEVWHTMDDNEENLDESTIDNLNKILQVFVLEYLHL
# Procedure Text: Fluorometric assay of glutaminyl cyclase (QC) inhibition, H-Gln-βNA or H-Gln-AMC substrate
# Format: biochemical
# Condition Summary: read-out: IC50
Measured Quantity: pIC50
Numbers only, as −log10 of the molar value.

Solved entries (count: 5):
{"columns": ["Compound", "Measured Target", "pIC50"],
 "data": [
  ["S=C1N/C(=N/CCCc2ccccc2)C(c2cc(Br)cc(Br)c2)N1c1ccc2[nH]cnc2c1 (stereo not drawn)", "hQC (Homo sapiens, UniProt Q16769)", 5.24],
  ["O=C1N/C(=N\\Cc2ccccc2)C(c2ccccc2F)N1CCCn1ccnc1 (stereo not drawn)", "hQC (Homo sapiens, UniProt Q16769)", 5.24],
  ["CC1/C(=N/C(c2ccccc2)c2ccccc2)NC(=O)N1CCCn1ccnc1 (stereo not drawn)", "hQC (Homo sapiens, UniProt Q16769)", 5.03],
  ["S=C1N/C(=N\\C2CCCC2)C(c2ccc(Cl)cc2)N1c1ccc2[nH]cnc2c1 (stereo not drawn)", "hQC (Homo sapiens, UniProt Q16769)", 5.07],
  ["O=C1N/C(=N\\Cc2ccccc2)C(c2cccc(Br)c2)N1c1ccc2nc[nH]c2c1 (stereo not drawn)", "hQC (Homo sapiens, UniProt Q16769)", 8.40]
]}

Value sought for every listed compound: pIC50.
1. S=C1NC(=NC2CCc3ccccc32)C(c2ccnc3ccccc23)N1c1ccc2[nH]cnc2c1 (stereo not drawn)
2. O=C1N/C(=N/Cc2cccnc2)C(c2cccc(F)c2)N1CCCn1ccnc1 (stereo not drawn)
3. O=C(CN=C1NC(=S)N(c2ccc3nc[nH]c3c2)C1c1c(F)ccc(Cl)c1F)N1CCCCC1 (stereo not drawn)
4. CN1CCCN(C(=O)C/N=C2/NC(=O)N(c3ccc4[nH]cnc4c3)C2c2ccc3[nH]ccc3c2)CC1 (stereo not drawn)
5. O=C(C/N=C1/NC(=O)N(CCCn2ccnc2)C1c1cc(F)cc(F)c1)N1CCc2ccccc2C1 (stereo not drawn)

**A:**
[5.03, 5.07, 6.40, 5.66, 5.31]

Value sought for every listed compound: pIC50.
1. S=C1N/C(=N/Cc2ccc3[nH]ccc3c2)C(c2cc(Br)cc(Br)c2)N1c1ccc2nc[nH]c2c1 (stereo not drawn)
2. O=C(CN=C1NC(=O)N(c2ccc3[nH]cnc3c2)C1c1cc2c(cc1Br)OCO2)N1CCCCC1 (stereo not drawn)
3. C/N=C1/NC(=O)N(c2ccc3[nH]cnc3c2)C1c1ccc2[nH]ccc2c1 (stereo not drawn)
4. O=C1N/C(=N\C2CCCCC2)C(C2CCC=CO2)N1CCCn1ccnc1 (stereo not drawn)
5. O=C(C/N=C1/NC(=O)N(c2ccc3[nH]cnc3c2)C1c1cc(Br)cs1)N1CCCCC1 (stereo not drawn)
6. O=C1N/C(=N/C2CC2)C(C2CCC=CO2)N1CCCn1ccnc1 (stereo not drawn)

**A:**
1. 5.31
2. 8.40
3. 8.40
4. 5.30
5. 5.17
6. 5.07

Value sought for every listed compound: pIC50.
1. O=C1N/C(=N/Cc2ccccc2)C(c2cc(F)cc(F)c2)N1CCCn1ccnc1 (stereo not drawn)
2. O=C1N/C(=N/CCCc2ccccc2)C(c2c[nH]c3cc(F)ccc23)N1c1ccc2[nH]cnc2c1 (stereo not drawn)

**A:**
[5.24, 5.66]

Value sought for every listed compound: pIC50.
1. C/N=C1/NC(=O)N(c2ccc3[nH]cnc3c2)C1c1c[nH]c2ccc(Cl)cc12 (stereo not drawn)
2. CC(CC1/C(=N/C2CCCc3ccccc32)NC(=S)N1c1ccc2[nH]cnc2c1)CC(C)(C)C (stereo not drawn)

**A:**
1. 6.40
2. 5.17

Value sought for every listed compound: pIC50.
1. CCCCC1/C(=N\CC(=O)N2CCc3ccccc3C2)NC(=O)N1CCCn1ccnc1 (stereo not drawn)
2. O=C1N/C(=N/CCc2cccs2)C(c2ccc(O)cc2)N1CCCn1ccnc1 (stereo not drawn)
3. O=C1N/C(=N/CCc2c[nH]c3ccccc23)C(c2ccc(F)cc2)N1CCCn1ccnc1 (stereo not drawn)
4. CCc1ccccc1C1/C(=N/C2CCCc3ccccc32)NC(=O)N1c1ccc2[nH]cnc2c1 (stereo not drawn)
5. O=C1CCCN1CCC/N=C1/NC(=O)N(c2ccc3nc[nH]c3c2)C1c1ccc(Br)cc1 (stereo not drawn)
6. COC(=O)C(C)/N=C1\NC(=S)N(c2ccc3[nH]cnc3c2)C1c1ccc(C)cc1 (stereo not drawn) [Compound 320]

**A:**
1. 5.12
2. 5.31
3. 5.51
4. 5.66
5. 8.40
6. 5.24

**Q:** What does the record list as pIC50 for O=C1N/C(=N/CCN2CCOCC2)C(c2ccc3ccccc3c2)N1c1ccc2[nH]cnc2c1 (stereo not drawn) ?
**A:** 5.66

---

Provide the reported IC50 of each item.
# Measured Target: hQC (Homo sapiens)
# Procedure Text: Fluorometric assay of glutaminyl cyclase (QC) inhibition, H-Gln-βNA or H-Gln-AMC substrate
# Type: biochemical
# Condition Summary: read-out: IC50
One number for each entry, in µM.

Value sought for every listed molecule: IC50.
1. O=C1N/C(=N\C2CCCCC2)C(c2cc3c(cc2Br)OCO3)N1c1ccc2nc[nH]c2c1 (centres unmarked) [Compound 196]
2. CC1=CC(C)C(C2/C(=N/C3CCc4ccccc43)NC(=O)N2c2ccc3[nH]cnc3c2)CC1 (centres unmarked) [Compound 193]
3. O=C1CCCN1CCCN=C1NC(=O)N(c2ccc3[nH]cnc3c2)C1c1cccc2cccnc12 (centres unmarked) [Compound 215]
4. Cc1ccc(C2/C(=N\CCc3c[nH]c4ccccc34)NC(=O)N2c2ccc3[nH]cnc3c2)c(C)c1 (centres unmarked) [Compound 219]

**A:**
1. 0.004
2. 4.9
3. 6.7
4. 0.004

Value sought for every listed molecule: IC50.
1. O=C(C/N=C1/NC(=O)N(CCCn2ccnc2)C1c1ccc(Cl)c(F)c1)N1Cc2ccccc2C1 (centres unmarked) [Compound 13]
2. CC(CC1/C(=N/C2CCCCCC2)NC(=O)N1c1ccc2nc[nH]c2c1)CC(C)(C)C (centres unmarked) [Compound 130]
3. O=C1N/C(=N\c2ccc3c(c2)OCCO3)C(c2ccc3c(c2)OCCO3)N1c1ccc2[nH]cnc2c1 (centres unmarked) [Compound 235]
4. CCCC1/C(=N\c2ccc3c(c2)OCCO3)NC(=O)N1CCCn1ccnc1 (centres unmarked) [Compound 29]

**A:**
8.3
7.6
0.004
8.5
